Give pIC50 for every item shown.
test: Cytotoxic effects in vitro on normal lung cells; format: cell-based; settings: IMR-90 normal lung fibroblast cells; human normal lung fibroblast (IMR-90); read-out: IC50, cytotoxicity towards human normal cells IMR-90
Answers are plain numbers, as −log10 of the molar value.

Observe how each entry below is paired with its result.
C#Cc1cccc(Nc2ncnc3cc(OCCOC)c(OCCOC)cc23)c1 [Erlotinib, erlotinib, reference compound] ... 4.40
CCOC(=O)C1=C(N)N(c2ccccc2)C2=C(C(=O)CC(C)(C)C2)C1c1ccc(Cl)cc1Cl (racemic) [10c] ... 4.21

Here is another molecule to look at.
Returns the measured pIC50 for the input molecule. Input: CCOC(=O)C1=C(N)N(c2ccc(Cl)cc2)C2=C(C(=O)CC(C)(C)C2)C1c1ccc(Cl)cc1Cl (racemic) [10d]
4.26
